- Test system: IL-13
- assay.name: Cytokine assay: IL-13 release from PHA-L stimulated human PBMCs
- Format: cell-based
- measurement.conditions: Homo sapiens, PBMC, read-out: IL13 IC50
result.type: IC50 (nM)
Express it in nM; write the number only.

Ask: Hello, please tell me recorded IC50 for this one: CCOc1c(OC)ccc(-c2cccc(C3COB(O)C3)c2)c1F (centres unmarked)
Reply: 1010

Ask: Give me measured IC50, please, for this compound: COc1ccc(-c2cccc(C3COB(O)C3)n2)cc1OC1CCCC1 (centres unmarked)
Reply: 814

Ask: Consider the compound CCOc1c(OC)ccc(-c2cccc(C3COB(O)C3)c2)c1C#N (centres unmarked) [Example 191] . State its measured IC50.
Reply: 1500

Ask: Supply IC50 value. Item: CCOc1cc(-c2cccc(C3COB(O)C3)c2)ccc1SC (centres unmarked)
Reply: 1110

Ask: Check the records and state IC50 for CCCOc1cc(-c2nc(OC)cc(C3COB(O)C3)n2)ccc1OC (centres unmarked) [Example 224]
Reply: 2490

Ask: Assign IC50 to the following record: COc1ccc(-c2cccc(C3COB(O)C3)n2)c(F)c1OC (centres unmarked)
Reply: 975

Ask: Supply measured IC50 of CCOc1c(OC)ccc(-c2cncc(C3COB(O)C3)c2)c1F (single isomer, unassigned) [Example 74] in your reply.
Reply: 768

Ask: Annotate the compound CCCOc1c(OC)ccc(-c2cccc(C3COB(O)C3)n2)c1C#N (single isomer, unassigned) [Example 87] with its measured IC50.
Reply: 444

Ask: Determine its reported IC50: COc1ccc(-c2cc(C3COB(O)C3)ccn2)cc1OC1CCCC1 (centres unmarked) [Example 210]
Reply: 2390

Ask: Please report IC50 for the following compound: CCOc1cc(-c2cncc(C3COB(O)C3)c2)ccc1OC (centres unmarked)
Reply: 181

Ask: Please supply the value of reported IC50 for the item CCOc1cc(-c2cncc(C3COB(O)C3)c2)c(Cl)cc1OC (single isomer, unassigned) [Example 15]
Reply: 136

Ask: Let me know recorded IC50 for CCCOc1c(OC)ccc(-c2cccc(C3COB(O)C3)c2)c1C#N (centres unmarked) , thanks.
Reply: 205

Ask: Give me measured IC50, please, for this compound: CCCOc1cc(-c2cc(C3COB(O)C3)cnn2)ccc1OC (centres unmarked) [Example 137]
Reply: 1090

Ask: Note IC50 for the compound shown: COc1ccc(-c2nc(C3COB(O)C3)ccc2F)cc1OC1CCCC1 (centres unmarked)
Reply: 591

Ask: For the compound CCCOc1cc(-c2cccc(C3COB(O)C3C)n2)ccc1OC (centres unmarked) , report IC50.
Reply: 10000

Ask: Consider the compound CCCOc1nc(-c2cncc(C3COB(O)C3)c2)ccc1OC (centres unmarked) and give its recorded IC50.
Reply: 308

Ask: Give reported IC50 value for CCOc1ccc(-c2cncc(C3COB(O)C3)c2)cc1OC (single isomer, unassigned; enantiomer2) [Example 188]
Reply: 1530

Ask: Give the measured IC50 for COc1ccc(-c2cncc(C3COB(O)C3)c2)cc1OC1CC1 (centres unmarked)
Reply: 476

Ask: Write down IC50 measured for item "CCCOc1c(OC)ccc(-c2cccc(C3=CB(O)OC3)c2)c1C#N"
Reply: 10000

Ask: Give recorded IC50. COc1ccc(-c2cccc(C3COB(O)C3)c2)cc1OCCCF (centres unmarked)
Reply: 175

Ask: Read off the recorded IC50 for CCCOc1cc(-c2cc(C3COB(O)C3)cnc2C)cnc1OC (centres unmarked) [Example 218]
Reply: 2840

Ask: Supply measured IC50 of CCCOc1cc(-c2nc(C3COB(O)C3)ccc2F)ccc1OC (centres unmarked) in your reply.
Reply: 668

Ask: Determine from records and report IC50 for CCOc1cc(-c2cc(C3COB(O)C3)cnc2CC)ccc1OC (centres unmarked)
Reply: 1350

Ask: Please report IC50 for the following compound: CCCOc1cc(-c2nc(OCCO)cc(C3COB(O)C3)n2)ccc1OC (centres unmarked) [Example 195]
Reply: 2190

Ask: Note IC50 for the compound shown: COc1cc(-c2cccc(C3COB(O)C3)c2)cnc1OC (centres unmarked)
Reply: 960

Ask: Please look at this compound and report its IC50: CCOc1cc(-c2cncc(C3COB(O)C3)c2)c(C)cc1OC (centres unmarked)
Reply: 373
